# target-or-system: ASK1 (Homo sapiens (Human))
# Sequence (Q99683 whole entry): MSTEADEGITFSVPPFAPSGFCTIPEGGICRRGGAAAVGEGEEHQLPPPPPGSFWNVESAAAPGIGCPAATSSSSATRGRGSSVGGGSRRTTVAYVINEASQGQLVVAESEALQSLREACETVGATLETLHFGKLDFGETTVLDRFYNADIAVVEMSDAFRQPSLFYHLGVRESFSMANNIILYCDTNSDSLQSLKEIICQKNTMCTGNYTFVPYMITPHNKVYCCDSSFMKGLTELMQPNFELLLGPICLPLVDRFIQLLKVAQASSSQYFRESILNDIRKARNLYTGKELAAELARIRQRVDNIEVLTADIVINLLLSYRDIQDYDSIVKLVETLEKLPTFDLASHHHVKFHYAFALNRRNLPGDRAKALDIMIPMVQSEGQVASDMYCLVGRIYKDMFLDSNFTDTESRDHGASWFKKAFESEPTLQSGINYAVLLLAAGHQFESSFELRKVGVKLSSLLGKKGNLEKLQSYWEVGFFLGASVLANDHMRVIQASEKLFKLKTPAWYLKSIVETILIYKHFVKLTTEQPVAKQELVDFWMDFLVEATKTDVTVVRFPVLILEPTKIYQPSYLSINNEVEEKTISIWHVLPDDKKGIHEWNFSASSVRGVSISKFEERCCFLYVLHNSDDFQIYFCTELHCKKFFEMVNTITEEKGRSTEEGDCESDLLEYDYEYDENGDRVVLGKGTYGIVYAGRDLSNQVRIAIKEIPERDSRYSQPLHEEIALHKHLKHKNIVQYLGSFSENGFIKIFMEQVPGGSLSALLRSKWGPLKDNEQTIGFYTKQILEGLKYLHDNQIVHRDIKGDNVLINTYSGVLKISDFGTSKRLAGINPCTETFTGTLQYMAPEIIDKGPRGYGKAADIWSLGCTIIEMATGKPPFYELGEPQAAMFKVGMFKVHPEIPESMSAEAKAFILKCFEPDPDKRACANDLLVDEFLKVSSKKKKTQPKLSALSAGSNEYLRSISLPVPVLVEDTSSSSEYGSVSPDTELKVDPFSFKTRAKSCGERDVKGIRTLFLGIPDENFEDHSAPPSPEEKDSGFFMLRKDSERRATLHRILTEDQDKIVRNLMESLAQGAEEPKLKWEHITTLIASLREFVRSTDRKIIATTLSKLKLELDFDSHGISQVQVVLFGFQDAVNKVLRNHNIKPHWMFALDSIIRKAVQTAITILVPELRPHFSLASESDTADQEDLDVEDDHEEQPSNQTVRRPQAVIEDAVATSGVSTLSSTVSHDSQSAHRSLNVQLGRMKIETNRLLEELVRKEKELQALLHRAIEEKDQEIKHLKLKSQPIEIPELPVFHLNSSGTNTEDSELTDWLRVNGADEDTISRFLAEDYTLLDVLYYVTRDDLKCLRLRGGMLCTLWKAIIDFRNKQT
pIC50: −log10 of the molar value.

# molecule, target-or-system, pIC50
data = [
    ("CC(C)N1Cc2cc(N(C)C)c(C(=O)Nc3cccc(-c4nnnn4[C@H](C)CO)n3)cc2S1(=O)=O [Example 14]", "ASK1 (Homo sapiens (Human))", "7.00 to 8.00"),
    ("CC(C)n1cnnc1-c1cccc(NC(=O)c2cc3c(cc2F)CN(C)S3(=O)=O)n1 [Example 15]", "ASK1 (Homo sapiens (Human))", "7.00 to 8.00"),
    ("C[C@H](CO)n1nnnc1-c1cccc(NC(=O)c2cc3c(cc2F)CN(C)S3(=O)=O)n1 [Example 17]", "ASK1 (Homo sapiens (Human))", "7.00 to 8.00"),
    ("CC(C)n1nnnc1-c1cccc(NC(=O)c2cc3c(cc2F)CCN(C(C)(C)C)S3(=O)=O)n1 [Example 4]", "ASK1 (Homo sapiens (Human))", "7.00 to 8.00"),
    ("CC(C)N1Cc2cc(F)c(C(=O)Nc3cccc(-c4nncn4C(C)C)n3)cc2S1(=O)=O [Example 7]", "ASK1 (Homo sapiens (Human))", "7.00 to 8.00"),
    ("COc1cc2c(cc1C(=O)Nc1cccc(-c3nncn3C(C)C)n1)S(=O)(=O)N(C(C)C)C2 [Example 8]", "ASK1 (Homo sapiens (Human))", "> 8.82"),
    ("COCCN1Cc2cc(OC)c(C(=O)Nc3cccc(-c4nnnn4[C@H](C)CO)n3)cc2S1(=O)=O [Example 22]", "ASK1 (Homo sapiens (Human))", "> 8.82"),
    ("COCCN1Cc2cc(OC)c(C(=O)Nc3cccc(-c4nncn4C(C)C)n3)cc2S1(=O)=O [Example 20]", "ASK1 (Homo sapiens (Human))", "7.00 to 8.00"),
]

Each recorded value in this set is attributed to patent US10683289B2.
